# measurementTarget: human EGFR L858R (NIH/3T3 cells) (Homo sapiens, UniProt P00533, L858R)
# Sequence (P00533 25-1210 L858R): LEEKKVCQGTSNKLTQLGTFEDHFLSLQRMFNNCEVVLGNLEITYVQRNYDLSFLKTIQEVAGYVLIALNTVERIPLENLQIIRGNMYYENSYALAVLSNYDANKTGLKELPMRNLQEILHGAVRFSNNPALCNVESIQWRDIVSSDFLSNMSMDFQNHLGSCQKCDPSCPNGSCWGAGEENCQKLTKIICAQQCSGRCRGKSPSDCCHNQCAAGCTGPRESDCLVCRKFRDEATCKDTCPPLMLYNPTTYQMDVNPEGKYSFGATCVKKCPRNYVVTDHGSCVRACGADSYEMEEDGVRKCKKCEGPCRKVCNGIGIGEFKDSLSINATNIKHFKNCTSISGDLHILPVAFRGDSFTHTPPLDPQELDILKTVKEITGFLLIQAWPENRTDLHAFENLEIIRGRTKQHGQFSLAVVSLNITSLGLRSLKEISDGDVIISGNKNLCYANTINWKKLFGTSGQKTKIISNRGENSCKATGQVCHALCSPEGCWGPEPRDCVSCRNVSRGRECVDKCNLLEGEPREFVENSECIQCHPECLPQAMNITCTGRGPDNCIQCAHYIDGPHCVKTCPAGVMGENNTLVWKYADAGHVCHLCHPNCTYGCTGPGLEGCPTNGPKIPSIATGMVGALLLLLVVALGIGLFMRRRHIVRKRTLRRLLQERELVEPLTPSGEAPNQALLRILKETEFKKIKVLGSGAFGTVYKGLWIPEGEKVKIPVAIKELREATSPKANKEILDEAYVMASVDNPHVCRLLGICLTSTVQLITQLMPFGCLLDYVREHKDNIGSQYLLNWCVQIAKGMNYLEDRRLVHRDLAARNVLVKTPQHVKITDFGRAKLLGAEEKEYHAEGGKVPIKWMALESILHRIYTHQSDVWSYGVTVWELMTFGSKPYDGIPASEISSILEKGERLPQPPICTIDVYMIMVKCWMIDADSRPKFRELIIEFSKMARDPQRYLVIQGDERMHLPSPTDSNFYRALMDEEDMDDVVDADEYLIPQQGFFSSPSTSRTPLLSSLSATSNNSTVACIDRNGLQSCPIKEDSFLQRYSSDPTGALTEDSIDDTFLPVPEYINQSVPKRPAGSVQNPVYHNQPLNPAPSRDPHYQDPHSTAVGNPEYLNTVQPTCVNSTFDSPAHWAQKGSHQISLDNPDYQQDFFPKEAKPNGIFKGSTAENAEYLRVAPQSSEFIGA
# measurementDescription: EGFR target modulation in engineered NIH/3T3 cell lines (phospho-EGFR Y1068 AlphaLISA), EGFR L858R
# Assay type: cell-based
# studyConditions: engineered NIH/3T3 cells, read-out: NIH3T3 IC50 (μM) EGFR (L858R)
# Description: EGFR Target Modulation in Engineered NIH/3T3 Cell Lines Tissue Culture. The cells were harvested with 0.05% Trypsin/EDTA (Hyclone #SH30236.01), re-suspended in 5% FBS/DMEM Pen/Strep without Puromycin and plated at 9,000 cells per well in 50 μl of media in a 384-well black plate with clear bottoms (Greiner #789068G). […] With these parameters, the IC50's for each compound in each cell line was calculated using non-linear curve fitting analysis.
Measured log10(IC50) accompanies every entry in the list below.
// stored as log10 of IC50 expressed in µM

C=CC(=O)N1CCC[C@@H](n2c(NC(=O)c3cccc(C(F)(F)F)c3)nc3cc(CN4CCC(F)(F)C4)ccc32)C1 [Example 17-125] = -1.06
Cc1cccc2nc(NC(=O)c3ccn(C)c(=O)c3)n(C3CCCCN(C(=O)/C=C/CN(C)C)C3)c12 (stereo not drawn) [Example 17-49] = -2.22
Cc1cccc2nc(NC(=O)c3cccc(C#N)c3)n(C3CCCCN(C(=O)/C=C/CN(C)C)C3)c12 (stereo not drawn) [Example 17-42] = -2.70
Cc1cc(C(=O)Nc2nc3cccc(Cl)c3n2[C@@H]2CCCCN(C(=O)/C=C/CN3CC(F)(F)C3)C2)ccn1 [Example 3-15] = -0.95
Cc1cccc2nc(NC(=O)c3ccc(F)c(Cl)c3F)n(C3CCCCN(C(=O)/C=C/CN(C)C)C3)c12 (stereo not drawn) [Example 17-32] = -2.15
Cc1cccc2nc(NC(=O)c3ccnnc3)n([C@@H]3CCCCN(C(=O)C4=COCCO4)C3)c12 [Example 17-89] = -0.34
Cc1cccc2nc(NC(=O)c3ccnnc3)n(C3CCCCN(C(=O)/C=C/CN(C)C)C3)c12 (stereo not drawn) [Example 17-24] = -2.30
Cc1cccc2nc(NC(=O)c3cc(F)ccc3F)n(C3CCCCN(C(=O)/C=C/CN(C)C)C3)c12 (stereo not drawn) [Example 17-29] = -1.55
C=CC(=O)N1CCCC[C@@H](n2c(NC(=O)c3ccnnc3)nc3cccc(OC)c32)C1 [Example 17-84] = -1.40
Cc1cc(C(=O)Nc2nc3cccc(Cl)c3n2[C@@H]2CCCCN(C(=O)/C=C/CN3CC[C@@H](O)C3)C2)ccn1 [Example 3-6] = -1.74

Given item CO[C@@H]1CCN(C/C=C/C(=O)N2CCCC[C@@H](n3c(NC(=O)c4ccnc(C)c4)nc4cccc(Cl)c43)C2)C1 [Example 3-4] , the value recorded as its log10(IC50) is -2.52

GET /value?item= C=CC(=O)N1CCCC[C@@H](n2c(NC(=O)c3ccnc(C)c3)nc3cc(CN4CC(F)(F)C4)cc(C)c32)C1 [Example 17-153] &field=log10(IC50) returns -3.00

For C=CC(=O)N1CCCC(n2c(NC(=O)c3cccc(C(F)(F)F)c3)nc3cc(C)ccc32)C1 (stereo not drawn) [Example 17-100] the molecule record lists log10(IC50) as -0.47

The reported value for C=CC(=O)N1CCCC[C@@H](n2c(NC(=O)c3ccnnc3)nc3cccc(C)c32)C1 [Example 17-94] in terms of log10(IC50) is -3.00

* * *

# measurementTarget: H3255 (EGFR L858R) (Homo sapiens, UniProt P00533, L858R)
# measurementDescription: EGFR target modulation in H3255 cell line (phospho-EGFR Y1173 ELISA)
Recorded measurements of log10 IC50, one per entry
Scale: log10; quantity: IC50; unit before log: nM

log10 IC50 in this record for Cc1cccc2nc(NC(=O)c3cc(F)ccc3F)n(C3CCCCN(C(=O)/C=C/CN(C)C)C3)c12 (stereo not drawn) : 2.46

Record `CC(C)Oc1cccc2nc(NC(=O)c3ccnnc3)n([C@@H]3CCCCN(C(=O)/C=C/CN(C)C)C3)c12` , field log10 IC50: 2.05

Entry `Cc1cc(C(=O)Nc2nc3cccc(Cl)c3n2[C@@H]2CCCCN(C(=O)/C=C/CN3CC(F)(F)C3)C2)ccn1` ; log10 IC50 = 1.95

Measured log10 IC50 of `Cc1cc(C(=O)Nc2nc3cccc(C)c3n2[C@@H]2CCCCN(C(=O)/C=C/CN3CCCC3)C2)ccn1` : 1.08

The compound listed as `C=CC(=O)N1CCCC[C@@H](n2c(NC(=O)c3cc(C)nc(C)c3)nc3cc(CN4CC[C@H](OC)C4)cc(C)c32)C1` has a reported log10 IC50 of 0.30

// sample `Cc1cccc2nc(NC(=O)c3ccnc(OC(F)F)c3)n([C@@H]3CCCCN(C(=O)/C=C/CN(C)C)C3)c12` , its log10 IC50 was 0.30

# compound Cc1cccc2nc(NC(=O)c3cccc(-n4cnnn4)c3)n(C3CCCCN(C(=O)/C=C/CN(C)C)C3)c12 (stereo not drawn) ; its log10 IC50 = 0.60

Field log10 IC50 (entry `COc1cc(C(=O)Nc2nc3cccc(C)c3n2[C@@H]2CCCCN(C(=O)/C=C/CN(C)C)C2)cc(Cl)n1` ) reads 1.93

Looking up `C=CC(=O)N1CCCC[C@@H](n2c(NC(=O)c3ccnc(C)c3)nc3cc(CN4CC[C@H](OC)C4)cc(C)c32)C1` , I see its log10 IC50 listed as 0.30

Item: `Cc1cccc2nc(NC(=O)c3cncc(-n4cccc4)c3)n([C@@H]3CCCCN(C(=O)/C=C/CN(C)C)C3)c12` | log10 IC50: 0.85

Noted for `Cc1cc(C(=O)Nc2nc3cccc(C(F)(F)F)c3n2[C@@H]2CCCCN(C(=O)/C=C/CN(C)C)C2)cc(C)n1` : its log10 IC50 reads 1.59

For `C/C=C/C(=O)N1CCCC[C@@H](n2c(NC(=O)c3ccnc(C)c3)nc3ccc(OCCN4CCCC4)c(Cl)c32)C1` the compound record lists log10 IC50 as 1.83

Notebook: `Cc1cc(C(=O)Nc2nc3cccc(C)c3n2[C@@H]2CCCCN(C(=O)/C=C/CN(C)C)C2)cnn1` , log10 IC50 read as 1.46

Query Cc1cccc2nc(NC(=O)c3ccc(C(F)(F)F)nc3)n(C3CCCCN(C(=O)/C=C/CN(C)C)C3)c12 (stereo not drawn) yields log10 IC50 of 0.70

The compound `C=CC(=O)N1CCCC[C@@H](n2c(NC(=O)c3ccnc(C)c3)nc3cc(CN4CCC4)cc(C)c32)C1` showed log10 IC50 equal to 0.30

// recorded log10 IC50 for `C=CC(=O)N1CCCC[C@@H](n2c(NC(=O)c3ccnnc3)nc3cccc(C)c32)C1` : 0.30

Data point: `C=CC(=O)N1CCCC[C@@H](n2c(NC(=O)c3ccnc(C)c3)nc3cc(CN4CC[C@@H](F)C4)cc(C)c32)C1` ; log10 IC50 = 0.30

* * *

Parameter: IC50. Scope: all listed entries.
# measurementTarget: human EGFR WT (NIH/3T3 cells, EGF-induced) (Homo sapiens, UniProt P00533)
# Sequence (P00533 25-1210): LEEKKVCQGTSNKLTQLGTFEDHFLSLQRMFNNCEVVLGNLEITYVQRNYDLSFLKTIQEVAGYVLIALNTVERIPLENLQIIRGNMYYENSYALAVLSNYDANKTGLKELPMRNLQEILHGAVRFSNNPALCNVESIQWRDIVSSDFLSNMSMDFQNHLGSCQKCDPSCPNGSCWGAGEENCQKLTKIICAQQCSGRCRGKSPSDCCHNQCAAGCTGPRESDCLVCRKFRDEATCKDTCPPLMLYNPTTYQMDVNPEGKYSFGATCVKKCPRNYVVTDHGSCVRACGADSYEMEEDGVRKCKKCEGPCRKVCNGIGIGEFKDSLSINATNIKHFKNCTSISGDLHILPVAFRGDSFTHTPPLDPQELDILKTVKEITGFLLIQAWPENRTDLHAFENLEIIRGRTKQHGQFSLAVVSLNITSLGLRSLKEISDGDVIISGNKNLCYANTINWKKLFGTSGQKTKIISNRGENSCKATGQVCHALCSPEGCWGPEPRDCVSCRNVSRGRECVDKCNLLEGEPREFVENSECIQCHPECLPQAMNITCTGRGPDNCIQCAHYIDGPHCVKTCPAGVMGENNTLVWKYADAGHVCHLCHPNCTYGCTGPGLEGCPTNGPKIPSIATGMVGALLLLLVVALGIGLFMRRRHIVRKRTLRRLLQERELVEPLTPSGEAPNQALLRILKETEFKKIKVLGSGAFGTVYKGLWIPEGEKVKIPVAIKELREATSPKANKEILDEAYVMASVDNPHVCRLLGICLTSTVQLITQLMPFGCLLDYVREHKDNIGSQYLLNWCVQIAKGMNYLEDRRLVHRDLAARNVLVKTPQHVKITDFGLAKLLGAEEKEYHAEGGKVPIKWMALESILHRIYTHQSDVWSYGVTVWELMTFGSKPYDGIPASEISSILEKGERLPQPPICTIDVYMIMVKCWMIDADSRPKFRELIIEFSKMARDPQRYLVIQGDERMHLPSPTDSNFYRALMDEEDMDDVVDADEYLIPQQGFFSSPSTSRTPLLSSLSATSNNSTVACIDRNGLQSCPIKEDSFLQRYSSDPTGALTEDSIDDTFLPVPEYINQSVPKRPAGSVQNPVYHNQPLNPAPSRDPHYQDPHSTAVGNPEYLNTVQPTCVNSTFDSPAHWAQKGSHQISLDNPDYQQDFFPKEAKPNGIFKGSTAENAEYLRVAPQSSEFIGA
# measurementDescription: EGFR target modulation in engineered NIH/3T3 cell lines (phospho-EGFR Y1068 AlphaLISA), EGFR WT
# Type: cell-based
# studyConditions: engineered NIH/3T3 cells, read-out: NIH3T3 IC50 (μM) EGFR (WT)
Provide only the numeric value, understood in µM.

These recorded examples may help you get a feel for the data.
Cc1cccc2nc(NC(=O)c3ccc(C(F)(F)F)nc3)n(C3CCCCN(C(=O)/C=C/CN(C)C)C3)c12 (stereo not shown) = 0.057
Cc1cc(C(=O)Nc2nc3cccc(Cl)c3n2[C@@H]2CCCCN(C(=O)/C=C/CN(C)C)C2)cc(C)n1 = 0.34
Cc1cccc2nc(NC(=O)c3ccnnc3)n(C3CCCCN(C(=O)/C=C/CN(C)C)C3)c12 (stereo not shown) = 0.094

Please fill in: IC50 reported for `Cc1cc(C(=O)Nc2nc3cccc(C)c3n2[C@@H]2CCCN(C(=O)/C=C/CN(C)C)C2)ccn1` = 1.4

* * *

# measurementTarget: human EGFR WT (NIH/3T3 cells, EGF-induced) (Homo sapiens)
# measurementDescription: EGFR target modulation in engineered NIH/3T3 cell lines (phospho-EGFR Y1068 AlphaLISA), EGFR WT
# Assay type: cell-based
# studyConditions: engineered NIH/3T3 cells, read-out: NIH3T3 IC50 (μM) EGFR (WT)
measuredEndpoint: IC50 (µM)
Give just the numeric value; µM need not be written.

C=CC(=O)N1CCCCC(n2c(NC(=O)c3cccc(C(F)(F)F)c3)nc3cccc(CN4CCCC4)c32)C1 (stereo not shown) = 0.12
COc1cc(C(=O)Nc2nc3cccc(C)c3n2C2CCCCN(C(=O)/C=C/CN(C)C)C2)ccn1 (stereo not shown) = 0.122

Turning now to a further molecule:
The molecule Cc1ncc(C(=O)Nc2nc3cccc(C)c3n2C2CCCCN(C(=O)/C=C/CN(C)C)C2)s1 (single isomer, unassigned) [Example 21-8B] showed IC50 equal to 0.016
